Each recorded value in this set is attributed to patent US7429564B2.

Experiment: Example 8: food effect on 4-CNAB pharmacokinetics, type 1 diabetes patients
Format: in vivo, human
Settings: human, plasma, oral, period 0-30 minutes post-dose; Breakfast 20 min post-dose

| compound | Cmax (ng/mL) |
| --- | --- |
| O=C(O)CCCNC(=O)c1ccc(Cl)cc1O [4-CNAB] | 24600 |

====

Experiment: Example 5: 4-CNAB plasma pharmacokinetics, single oral doses, healthy male volunteers
Format: in vivo, human
Settings: male, human, plasma; 4-CNAB alone 2000 mg oral; read-out: 4-CNAB MRT(0-t)

| molecule | MRT last [h] |
| --- | --- |
| O=C(O)CCCNC(=O)c1ccc(Cl)cc1O [4-CNAB] | 1.73 |
